Let's look at some binders and their measured Trimeric HA Binding: RLU.
- tested.system: recombinant soluble homotrimeric HA of A/Vietnam/1203/04 (H5N1) (Influenza A virus A/VietNam/1203/2004(H5N1))
- test.method.notes: trimeric HA microarray, transfection supernatant set 5
- recorded.conditions: remark: other sources report otherwise
Use RLU as the unit, but write only the number.

Some binders with recorded Trimeric HA Binding: RLU:
TCN-537 (3194_D21) (antibody, V domains shown) VH: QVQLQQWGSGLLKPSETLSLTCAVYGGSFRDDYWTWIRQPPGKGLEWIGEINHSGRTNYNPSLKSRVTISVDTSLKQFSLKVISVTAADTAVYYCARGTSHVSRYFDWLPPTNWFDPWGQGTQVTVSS VL: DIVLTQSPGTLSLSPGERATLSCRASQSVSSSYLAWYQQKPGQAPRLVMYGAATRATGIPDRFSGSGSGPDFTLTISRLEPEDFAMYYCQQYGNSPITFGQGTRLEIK; 50300
TCN-539 (5056_A08) (antibody, V domains shown) VH: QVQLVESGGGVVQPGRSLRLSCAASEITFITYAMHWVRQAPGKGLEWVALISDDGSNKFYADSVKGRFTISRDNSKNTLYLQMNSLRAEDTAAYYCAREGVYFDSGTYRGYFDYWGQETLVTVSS VL: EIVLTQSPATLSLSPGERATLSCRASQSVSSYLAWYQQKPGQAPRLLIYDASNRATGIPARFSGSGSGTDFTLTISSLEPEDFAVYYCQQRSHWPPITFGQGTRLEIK; 53300
TCN-543 (5081_G23) (antibody, V domains shown) VH: QVHLVQSGAEVRKPGDSVKVSCKTSGYTFSTYPVAWVRQVPGQGLEWMGWISTYNGNTNFAQNFQGRVTLTTDTTTNTAYMEVRSLKFDDTAVYYCARVEGSYRDFWNNQNRFDPWGQGTLVTVSS VL: SYVLTQPPSVSVAPGQTARISCGGSNIGGKSVHWYQQKPGQAPVLVVYDDSGRPSGIPERFSGSNSGDTATLTISRVEAGDEADYFCQVWDNFGGVFGTGTKVTVL; 33100
TCN-541 (5062_M11) (antibody, V domains shown) VH: QVQLQESGPGLVKPSETLSLTCTVSGGSINSYYWNWIRQPPGKGLEWIGYIYHSGSTNYNPSLKSRVTISVDTSKNQFSLQLSSVTAADTAVYYCARLRTDYGDPDSVYYYGMDVWGQGTTVTVSS VL: SYELTQPPSVSVSPGQTARITCSGDALPKQNAYWYQQKPGQAPVLLIYKDSERPSGIPERFSGSSSGTTVTLTISGVQAEDEADYYCQSADSSGTSWVFGGGTKLTVL; 45500

Shift focus to the following entry.
I have this binder here, TCN-538 (3206_O17) (antibody, V domains shown) VH: QITLKESGPTLVKPTQTLTLTCVFSGFSLSITGVRVGWIRQPPGKALEWLALISWDDEKHYSPSLQSRLTITKDTSKNQVVLTMTNLDPVDTATYYCARSTDRGHVLRYFGWMLPGDAFDVWGQGTMVTVSS VL: DIVMTQSPDFLPVSLGERATINCKSSQRVLYSSNNKNYLAWYQLKPGQPPKLIIYWASTRESGVPDRFSGSGSGTEFTLTISSLQAEDVAVYYCQQYYSRPYTFGQGTKLEIK , and I need its recorded Trimeric HA Binding: RLU.
52400
